tested system: EeAChE (Electrophorus electricus, UniProt O42275)
Construct: EeAChE (type VI-S, purified from Electrophorus electricus); tissue type VI-S
Sequence (O42275 24-633): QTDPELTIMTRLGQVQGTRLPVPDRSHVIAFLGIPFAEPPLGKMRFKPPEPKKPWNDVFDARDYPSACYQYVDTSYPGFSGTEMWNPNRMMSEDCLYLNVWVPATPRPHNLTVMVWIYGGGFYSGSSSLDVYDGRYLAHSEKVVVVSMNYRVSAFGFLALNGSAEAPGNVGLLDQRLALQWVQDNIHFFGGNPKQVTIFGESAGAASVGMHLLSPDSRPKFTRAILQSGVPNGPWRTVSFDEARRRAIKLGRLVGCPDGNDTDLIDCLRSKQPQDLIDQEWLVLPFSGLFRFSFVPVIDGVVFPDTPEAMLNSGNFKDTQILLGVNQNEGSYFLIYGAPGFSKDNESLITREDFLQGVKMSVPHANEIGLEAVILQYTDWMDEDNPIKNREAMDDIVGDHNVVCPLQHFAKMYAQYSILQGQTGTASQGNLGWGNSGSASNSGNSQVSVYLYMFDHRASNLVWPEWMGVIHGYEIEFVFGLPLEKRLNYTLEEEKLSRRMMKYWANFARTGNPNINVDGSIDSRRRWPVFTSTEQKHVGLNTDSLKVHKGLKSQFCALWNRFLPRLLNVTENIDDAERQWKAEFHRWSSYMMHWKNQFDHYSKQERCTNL
measurement description: biochemical
study conditions: mean ± SEM
Measured IC50 values are reported for all entries that follow.
Dear colleague, please return just the value in nM, with no unit written.

In [3]: df
Out[3]:
                                   compound  unit_name  measured_value
0  O=C(CN(CCCC1CCN(Cc2ccccc2)CC1)C(=O)c1cc(=O)c2ccccc2o1)NCCc1c[nH]c2ccccc12 [14i]         nM             260
1  CC(C)Oc1ccc2[nH]cc(CCNC(=O)CN(CCC3CCN(Cc4ccccc4)CC3)C(=O)c3cc(=O)c4ccccc4o3)c2c1 [14g]         nM            1050
2  CC(C)Oc1ccc2[nH]cc(CCNC(=O)CN(CCCC3CCN(Cc4ccccc4)CC3)C(=O)c3cc(=O)c4ccccc4o3)c2c1 [14k]         nM             360

Problem: Find the recorded IC50 belonging to CC(C)Oc1ccc2[nH]cc(CCNC(=O)CN(CCCCC3CCN(Cc4ccccc4)CC3)C(=O)c3cc(=O)c4ccccc4o3)c2c1 [14o] and report it.
Solution: 90

* * *

tested system: eqBuChE (Equus caballus, UniProt P81908)
Construct: eqBuChE (purified from equine serum)
Sequence (P81908 whole entry): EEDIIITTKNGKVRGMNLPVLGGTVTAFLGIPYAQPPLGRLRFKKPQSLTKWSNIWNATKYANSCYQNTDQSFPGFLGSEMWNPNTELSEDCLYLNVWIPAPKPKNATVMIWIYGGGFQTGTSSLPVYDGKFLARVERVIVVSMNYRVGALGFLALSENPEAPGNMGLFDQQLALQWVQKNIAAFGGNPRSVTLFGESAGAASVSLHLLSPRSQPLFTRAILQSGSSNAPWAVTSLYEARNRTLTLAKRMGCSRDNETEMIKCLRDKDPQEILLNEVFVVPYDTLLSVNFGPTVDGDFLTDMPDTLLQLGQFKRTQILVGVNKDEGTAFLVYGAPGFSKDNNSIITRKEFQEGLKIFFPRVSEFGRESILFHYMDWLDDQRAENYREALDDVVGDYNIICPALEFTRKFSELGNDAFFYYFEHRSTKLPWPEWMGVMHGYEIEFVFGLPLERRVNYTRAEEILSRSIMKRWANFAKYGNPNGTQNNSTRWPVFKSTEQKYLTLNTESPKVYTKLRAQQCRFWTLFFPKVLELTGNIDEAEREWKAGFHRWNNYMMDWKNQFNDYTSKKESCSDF
measurement description: biochemical
study conditions: mean ± SEM
Measured IC50 values are reported for all entries that follow.
Dear colleague, please return just the value in nM, with no unit written.

Use these answered entries as a reference point.
In [3]: df
Out[3]:
                                   compound                             tested_system  measured_value
0  CC(C)Oc1ccc2[nH]cc(CCNC(=O)CN(CCC3CCN(Cc4ccccc4)CC3)C(=O)c3cc(=O)c4ccccc4o3)c2c1 [14g]  eqBuChE (Equus caballus, UniProt P81908)            6.29
1  COc1ccc2[nH]cc(CCNC(=O)CN(CCCC3CCN(Cc4ccccc4)CC3)C(=O)c3cc(=O)c4ccccc4o3)c2c1 [14j]  eqBuChE (Equus caballus, UniProt P81908)            37.1
2  CC(C)Oc1ccc2[nH]cc(CCNC(=O)CN(CC3CCN(Cc4ccccc4)CC3)C(=O)c3cc(=O)c4ccccc4o3)c2c1 [14c]  eqBuChE (Equus caballus, UniProt P81908)             246
3  CCCOc1ccc2[nH]cc(CCNC(=O)CN(CCCCC3CCN(Cc4ccccc4)CC3)C(=O)c3cc(=O)c4ccccc4o3)c2c1 [14p]  eqBuChE (Equus caballus, UniProt P81908)            61.3

Problem: Find the recorded IC50 belonging to O=C(CN(CCC1CCN(Cc2ccccc2)CC1)C(=O)c1cc(=O)c2ccccc2o1)NCCc1c[nH]c2ccccc12 [14e] and report it.
Solution: 29.6

Problem: How about this compound: CCCOc1ccc2[nH]cc(CCNC(=O)CN(CC3CCN(Cc4ccccc4)CC3)C(=O)c3cc(=O)c4ccccc4o3)c2c1 [14d]
Solution: 46.9

Problem: How about this compound: CC(C)Oc1ccc2[nH]cc(CCNC(=O)CN(CCCCC3CCN(Cc4ccccc4)CC3)C(=O)c3cc(=O)c4ccccc4o3)c2c1 [14o]
Solution: 46.6

Problem: How about this compound: COc1ccc2[nH]cc(CCNC(=O)CN(CCC3CCN(Cc4ccccc4)CC3)C(=O)c3cc(=O)c4ccccc4o3)c2c1 [14f]
Solution: 26

Problem: How about this compound: COc1ccc2[nH]cc(CCNC(=O)CN(CC3CCN(Cc4ccccc4)CC3)C(=O)c3cc(=O)c4ccccc4o3)c2c1 [14b]
Solution: 636
